Can you tell me kon for the items I'm about to list?
system name: T1, serum purified human Complement Factor D (human, UniProt P00746 26-253)
T1 construct: Serum purified protein flowed over the captured antibodies; also called CFD; human CFD
T1 sequence (P00746 26-253): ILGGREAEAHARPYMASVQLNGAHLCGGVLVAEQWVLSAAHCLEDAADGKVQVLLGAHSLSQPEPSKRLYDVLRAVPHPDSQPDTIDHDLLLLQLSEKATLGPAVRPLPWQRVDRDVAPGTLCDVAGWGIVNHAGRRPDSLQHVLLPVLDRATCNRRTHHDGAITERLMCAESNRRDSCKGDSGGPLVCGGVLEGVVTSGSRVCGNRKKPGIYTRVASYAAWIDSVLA
test details: SPR Biacore, antibody on protein A chip, single cycle kinetics, 25 C
Just the number please, in M⁻¹ s⁻¹, no unit attached.

Exercise: Would you kindly share the measured kon for 31S34I54I59D84S / 54R101V (antibody, V domains shown, KCD119 TAF variant; also called 3I534I54I59D84S / 54R101V) VH: EVQLVESGGGLVQPGGSLRLSCAASGYTFTSYYINWVRQAPGKGLEWIGDINPITGDTDYNADFKRRFTFSLDTSKSTAYLQMSSLRAEDTAVYYCTREGPSFAYWGQGTLVTVSS VL: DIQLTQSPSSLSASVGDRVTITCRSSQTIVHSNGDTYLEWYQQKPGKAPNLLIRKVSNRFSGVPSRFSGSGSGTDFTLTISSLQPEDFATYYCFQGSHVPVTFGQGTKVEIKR ?
Solution: 1.66e+07

Exercise: # repeat for 34I54I59D84S / 54G101V (antibody, V domains shown, also called 34I54I59D845 / 54G101V) VH: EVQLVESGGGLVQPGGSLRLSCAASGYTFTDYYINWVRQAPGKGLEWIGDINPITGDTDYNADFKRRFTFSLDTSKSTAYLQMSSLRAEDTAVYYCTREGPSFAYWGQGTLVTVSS VL: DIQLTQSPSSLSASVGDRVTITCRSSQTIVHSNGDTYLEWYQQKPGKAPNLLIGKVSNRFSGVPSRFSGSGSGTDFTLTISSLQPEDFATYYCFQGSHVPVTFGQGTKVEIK
Solution: 7.59e+06

Numbers sourced from patent US20180334496A1.
